Data provenance: ChEMBL document CHEMBL4219025

Each item that follows carries a reported IC50.
study.target: NAD-dependent protein deacetylase sirtuin-2 (Homo sapiens)
Sequence (Q8IXJ6 whole entry): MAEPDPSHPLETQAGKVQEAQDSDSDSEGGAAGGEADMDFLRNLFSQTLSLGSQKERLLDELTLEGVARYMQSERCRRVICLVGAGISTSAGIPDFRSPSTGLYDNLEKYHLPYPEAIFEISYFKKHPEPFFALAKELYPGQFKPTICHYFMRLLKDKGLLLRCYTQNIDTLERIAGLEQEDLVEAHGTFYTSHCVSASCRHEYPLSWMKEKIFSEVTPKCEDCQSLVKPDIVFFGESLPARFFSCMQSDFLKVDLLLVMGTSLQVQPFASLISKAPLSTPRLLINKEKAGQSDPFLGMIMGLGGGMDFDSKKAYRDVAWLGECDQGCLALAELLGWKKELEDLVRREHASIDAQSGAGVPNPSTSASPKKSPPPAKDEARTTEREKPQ
method.notes: Inhibition of recombinant human His10-tagged Sirt2 (56 to 356 residues) expressed in Escherichia coli BL21(DE3) using Z-(Ac)Lys-AMC as substrate measured after 4 hrs by high-throughput fluorescence based assay

molecule	IC50 / nM
C#CCOc1cccc(Cc2cnc(NC(=O)CSc3nc(C)cc(C)n3)s2)c1	2400
Cc1cc(C)nc(SCC(=O)Nc2ncc(Cc3cccc(OCc4cn(Cc5ccccc5)nn4)c3)s2)n1	160
Cc1cc(C)nc(SCC(=O)Nc2ncc(Cc3cccc(OCc4cn(CCOCCOCCOCCOCCOCCOCCOCCOCCOCCOCCOCCNC(=O)CCCCC5SCC6NC(=O)NC65)nn4)c3)s2)n1 (centres undefined)	310
Cc1cc(C)nc(SCC(=O)Nc2ncc(Cc3cccc(OCc4cn(CCCCNC(=O)COc5cccc6c5C(=O)N(C5CCC(=O)NC5=O)C6=O)nn4)c3)s2)n1 (centres undefined)	250
